Origin of values: patent US20260262643A1

Examples of compounds with documented Plant response rating, Foxtail, Giant follow.
# System: foxtail, giant
# measurement_description: Test A preemergence
# Assay type: in vivo, Setaria faberi
# condition_label: 500 g ai/ha, 0 to 100 scale (0 no effect, 100 complete control), 10 days
Give your answer as a number; write no unit.

compound	target_under_test	Plant response rating, Foxtail, Giant
Cc1ccc(-n2cnc(C3CCC3)n2)cc1C(=O)N1C[C@H](C)Oc2c(C)cccc21	foxtail, giant	100
C[C@H]1CN(C(=O)c2cccc(-n3cncn3)c2)c2cccc(C(F)(F)F)c2O1	foxtail, giant	90

Lab note: CC1CN(C(=O)c2cccc(-n3cncn3)c2)c2cccc(C3CC3)c2O1 (centres unmarked) gave Plant response rating, Foxtail, Giant of 90

Plant response rating, Foxtail, Giant reading for C[C@H]1CN(C(=O)c2cccc(-n3cnc(C(C)(C)C)n3)c2)c2cccc(Cl)c2O1 : 100

For this compound ( CCC1CN(C(=O)c2cccc(-n3cncn3)c2)c2cccc(Cl)c2O1 (racemic) ), measured Plant response rating, Foxtail, Giant is 80

Given item Cc1cccc2c1O[C@@H](C)CN2C(=O)c1cc(-n2cncn2)ccc1F , the value recorded as its Plant response rating, Foxtail, Giant is 100

// sample CC1CN(C(=O)c2cc(-n3cncn3)ccc2F)c2cccc(Cl)c2O1 (centres unmarked) , its Plant response rating, Foxtail, Giant was 100

Reported Plant response rating, Foxtail, Giant of Cc1cccc2c1O[C@@H](C)CN2C(=O)c1cccc(-n2cncn2)c1F : 0

// sample CCc1ncn(-c2ccc(C)c(C(=O)N3C[C@H](C)Oc4c(C)cccc43)c2)n1 , its Plant response rating, Foxtail, Giant was 100

Just so you know, measured Plant response rating, Foxtail, Giant for C[C@H]1CN(C(=O)c2cc(Cl)cc(-n3cncn3)c2)c2cccc(Cl)c2O1 came out at 90

====

# System: wheat
# measurement_description: Test A postemergence
# Type: in vivo, Triticum aestivum
# condition_label: Triticum aestivum, post-emergence, 240 h, 125 g ai/ha, postemergence, 10 days, 0 to 100 scale (0 no effect, 100 complete control); read-out: Wheat plant response rating
Listed here: items and their measured plant injury at 125 g/ha.
Hi! Could you send only the number? It should be in %, unit omitted.

As a guide, the following entries are already answered.
molecule	target_under_test	plant injury at 125 g/ha [%]
CCc1ncn(-c2ccc(OC)c(C(=O)N3C[C@H](C)Oc4c(Cl)cccc43)c2)n1	wheat	40
Cc1ccc(-n2ncnc2C)cc1C(=O)N1C[C@H](C)Oc2c(Cl)cccc21 (single isomer, unassigned)	wheat	0
Cc1cccc2c1O[C@@H](C)CN2C(=O)c1cccc(-n2cnc(C3COC3)n2)c1	wheat	40

Read the next record carefully.
The measured plant injury at 125 g/ha associated with C[C@H]1CN(C(=S)c2cccc(-n3cncn3)c2)c2cccc(Cl)c2O1 reads 20

====

# Test system: galium
# measurement_description: Test C postemergence
# Type: in vivo, Galium aparine
# condition_label: 125 g ai/ha, postemergence, 10 days; 0 to 100 scale, 0 no effect, 100 complete control
Plant response rating, Galium listing for selected compounds.
Answer as a number with no unit attached.

Kindly note the recorded Plant response rating, Galium for CC(C)c1ncn(-c2ccc(SC(F)(F)F)c(C(=O)N3C[C@H](C)Oc4c(Cl)cccc43)c2)n1 [Compound 249] , which is 90
